Values were extracted from patent US11566022B2.

- target_system: HiBit-WIZ fusion protein (Homo sapiens, UniProt O95785+Q96SW2)
- Sequence (O95785 whole entry, the tested form may be a part): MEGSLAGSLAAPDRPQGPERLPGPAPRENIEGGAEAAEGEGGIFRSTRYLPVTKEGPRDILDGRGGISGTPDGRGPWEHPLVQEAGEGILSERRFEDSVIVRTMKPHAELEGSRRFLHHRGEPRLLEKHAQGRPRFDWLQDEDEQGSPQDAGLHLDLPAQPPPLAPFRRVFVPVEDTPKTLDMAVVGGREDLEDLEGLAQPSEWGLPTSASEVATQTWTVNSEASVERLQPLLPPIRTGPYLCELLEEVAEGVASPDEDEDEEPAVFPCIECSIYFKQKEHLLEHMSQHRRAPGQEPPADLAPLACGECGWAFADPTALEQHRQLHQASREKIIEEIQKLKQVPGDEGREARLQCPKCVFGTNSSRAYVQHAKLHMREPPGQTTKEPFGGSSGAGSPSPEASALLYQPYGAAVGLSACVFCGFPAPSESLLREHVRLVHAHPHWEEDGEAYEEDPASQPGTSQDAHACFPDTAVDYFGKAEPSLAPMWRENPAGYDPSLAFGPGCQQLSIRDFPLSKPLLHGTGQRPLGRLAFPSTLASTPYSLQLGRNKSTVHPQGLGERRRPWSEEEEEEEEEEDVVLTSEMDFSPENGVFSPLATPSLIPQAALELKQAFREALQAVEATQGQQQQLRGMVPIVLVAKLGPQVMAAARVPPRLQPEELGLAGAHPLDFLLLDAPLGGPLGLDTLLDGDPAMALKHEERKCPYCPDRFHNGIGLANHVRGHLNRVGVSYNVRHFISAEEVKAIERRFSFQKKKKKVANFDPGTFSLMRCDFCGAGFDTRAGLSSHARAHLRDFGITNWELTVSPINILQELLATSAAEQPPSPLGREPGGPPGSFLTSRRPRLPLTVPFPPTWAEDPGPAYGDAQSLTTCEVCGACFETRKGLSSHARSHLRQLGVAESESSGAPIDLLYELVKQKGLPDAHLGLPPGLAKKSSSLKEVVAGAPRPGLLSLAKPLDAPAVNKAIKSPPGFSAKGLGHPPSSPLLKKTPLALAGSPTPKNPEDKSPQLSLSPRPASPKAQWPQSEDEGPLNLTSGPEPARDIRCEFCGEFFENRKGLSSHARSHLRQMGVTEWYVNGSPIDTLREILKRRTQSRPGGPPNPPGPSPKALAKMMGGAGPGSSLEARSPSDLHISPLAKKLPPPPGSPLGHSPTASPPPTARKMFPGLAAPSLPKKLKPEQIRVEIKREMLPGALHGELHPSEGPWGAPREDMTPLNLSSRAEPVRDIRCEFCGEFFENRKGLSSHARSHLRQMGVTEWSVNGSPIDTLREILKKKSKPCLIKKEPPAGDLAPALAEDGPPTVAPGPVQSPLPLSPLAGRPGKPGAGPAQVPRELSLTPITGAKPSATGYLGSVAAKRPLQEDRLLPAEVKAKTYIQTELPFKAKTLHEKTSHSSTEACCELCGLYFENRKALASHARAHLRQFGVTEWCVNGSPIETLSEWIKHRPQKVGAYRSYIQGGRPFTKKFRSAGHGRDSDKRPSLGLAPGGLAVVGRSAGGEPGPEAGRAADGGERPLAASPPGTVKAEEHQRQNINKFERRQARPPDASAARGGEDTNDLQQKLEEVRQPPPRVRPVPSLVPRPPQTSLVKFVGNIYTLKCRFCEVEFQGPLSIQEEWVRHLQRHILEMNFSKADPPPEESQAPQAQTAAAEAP
- Sequence (Q96SW2 whole entry, the tested form may be a part): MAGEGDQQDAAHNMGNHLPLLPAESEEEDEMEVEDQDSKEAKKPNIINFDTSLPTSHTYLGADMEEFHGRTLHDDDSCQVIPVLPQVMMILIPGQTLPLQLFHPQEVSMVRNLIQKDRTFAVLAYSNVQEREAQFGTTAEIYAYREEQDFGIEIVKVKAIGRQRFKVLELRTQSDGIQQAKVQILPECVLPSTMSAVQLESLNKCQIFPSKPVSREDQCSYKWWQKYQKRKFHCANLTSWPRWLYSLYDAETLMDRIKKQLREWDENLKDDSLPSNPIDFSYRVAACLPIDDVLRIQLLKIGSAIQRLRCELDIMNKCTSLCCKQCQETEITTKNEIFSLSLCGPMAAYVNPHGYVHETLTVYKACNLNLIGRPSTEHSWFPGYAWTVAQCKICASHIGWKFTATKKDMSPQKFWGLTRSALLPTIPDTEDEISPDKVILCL
- Sequence (Q16531 whole entry partner, the tested form may be a part): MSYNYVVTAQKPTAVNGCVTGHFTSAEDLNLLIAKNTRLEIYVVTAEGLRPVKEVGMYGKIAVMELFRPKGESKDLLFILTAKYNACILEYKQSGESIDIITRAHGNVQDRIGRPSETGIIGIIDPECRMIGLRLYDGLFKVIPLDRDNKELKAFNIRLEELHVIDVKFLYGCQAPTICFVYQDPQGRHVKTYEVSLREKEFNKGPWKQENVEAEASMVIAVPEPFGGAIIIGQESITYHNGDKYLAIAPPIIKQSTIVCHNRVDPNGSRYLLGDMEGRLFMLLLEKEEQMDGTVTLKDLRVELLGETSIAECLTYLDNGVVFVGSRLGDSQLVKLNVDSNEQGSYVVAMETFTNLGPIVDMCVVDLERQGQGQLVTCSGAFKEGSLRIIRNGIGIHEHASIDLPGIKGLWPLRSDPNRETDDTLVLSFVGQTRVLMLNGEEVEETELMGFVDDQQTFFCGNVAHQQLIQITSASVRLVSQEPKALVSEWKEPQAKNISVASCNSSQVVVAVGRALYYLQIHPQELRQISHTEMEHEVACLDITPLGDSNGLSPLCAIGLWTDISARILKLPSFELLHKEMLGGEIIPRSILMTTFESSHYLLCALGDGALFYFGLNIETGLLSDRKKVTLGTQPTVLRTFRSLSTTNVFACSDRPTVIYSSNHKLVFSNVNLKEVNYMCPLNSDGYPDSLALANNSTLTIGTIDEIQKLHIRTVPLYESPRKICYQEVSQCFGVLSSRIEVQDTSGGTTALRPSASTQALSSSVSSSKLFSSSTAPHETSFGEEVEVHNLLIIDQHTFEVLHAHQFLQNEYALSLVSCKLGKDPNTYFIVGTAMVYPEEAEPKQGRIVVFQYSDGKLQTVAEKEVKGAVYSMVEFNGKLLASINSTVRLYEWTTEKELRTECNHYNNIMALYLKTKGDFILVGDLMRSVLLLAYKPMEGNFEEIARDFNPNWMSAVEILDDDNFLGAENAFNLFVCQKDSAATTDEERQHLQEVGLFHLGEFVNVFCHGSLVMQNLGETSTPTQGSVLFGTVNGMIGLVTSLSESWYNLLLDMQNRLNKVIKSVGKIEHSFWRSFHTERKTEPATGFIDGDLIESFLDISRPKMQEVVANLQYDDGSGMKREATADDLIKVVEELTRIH
- assay_explanation: Quantification of WIZ protein levels in HiBit tag fusion protein assay (WIZ HiBit assay in 293T cells)
- Type: cell-based
- condition_info: HEK-293T, DMSO-normalized, curve-fitted percentage of WIZ-HiBit remaining at 25 uM; 293T cells; read-out: WIZ Amax
measure_name: remaining activity at up to 25 µM (%)

Sample answers from the record:
                                   molecule                             target_system  assay_result
0  O=C1CCC(N2Cc3cc(OC[C@H]4CCCCN4Cc4cccc(N5CCCC5)c4)ccc3C2=O)C(=O)N1 (stereo partly shown) [Compound I-50do]  HiBit-WIZ fusion protein (Homo sapiens, UniProt O95785+Q96SW2)           0.1
1  O=C1CCC(N2Cc3cc(OC[C@H]4CCCCN4Cc4ccc(C5CCN(CC6COC6)CC5)cc4)ccc3C2=O)C(=O)N1 (stereo partly shown) [Compound I-203]  HiBit-WIZ fusion protein (Homo sapiens, UniProt O95785+Q96SW2)          32.5
2  Cc1c(-c2ccccc2)n[nH]c1C(=O)N1CCCC[C@H]1COc1ccc2c(c1)CN(C1CCC(=O)NC1=O)C2=O (stereo partly shown) [Compound I-72by]  HiBit-WIZ fusion protein (Homo sapiens, UniProt O95785+Q96SW2)            48
3  O=C1CCC(N2Cc3cc(OC[C@@H]4CCCCN4Cc4cccc(O)c4O)ccc3C2=O)C(=O)N1 (stereo partly shown) [Compound I-50bx]  HiBit-WIZ fusion protein (Homo sapiens, UniProt O95785+Q96SW2)          43.6
4  N#Cc1cc(CN2CCCC[C@@H]2COc2ccc3c(c2)CN(C2CCC(=O)NC2=O)C3=O)ccn1 (stereo partly shown) [Compound I-50dn]  HiBit-WIZ fusion protein (Homo sapiens, UniProt O95785+Q96SW2)          78.8

I: CC(C)(C)OC(=O)N1CCN(c2ccccc2CN2CCCC[C@@H]2COc2ccc3c(c2)CN(C2CCC(=O)NC2=O)C3=O)CC1 (stereo partly shown) [Compound I-105]
II: O=C1CCC(N2Cc3cc(OC[C@H]4CCCCN4Cc4ccc(N5CCOCC5)nc4)ccc3C2=O)C(=O)N1 (stereo partly shown) [Compound I-186]
Asked: Which record shows the lower remaining activity at up to 25 µM: the first, I , or the second, II ? Provide the label of your selected option as the answer.
Given back: I
(I: 5.23%, II: 19.1%)
